Items are presented alongside their recorded ADCC reporter assay, Max RLU, CHOK1/B7-H3 cells.
# TESTED_SYSTEM: T1, B7-H3 on CHO-K1 cells stably transfected with B7-H3 (GenScript #M00536) (UniProt Q5ZPR3 29-534, limits assumed)
# T1 sequence (looked up): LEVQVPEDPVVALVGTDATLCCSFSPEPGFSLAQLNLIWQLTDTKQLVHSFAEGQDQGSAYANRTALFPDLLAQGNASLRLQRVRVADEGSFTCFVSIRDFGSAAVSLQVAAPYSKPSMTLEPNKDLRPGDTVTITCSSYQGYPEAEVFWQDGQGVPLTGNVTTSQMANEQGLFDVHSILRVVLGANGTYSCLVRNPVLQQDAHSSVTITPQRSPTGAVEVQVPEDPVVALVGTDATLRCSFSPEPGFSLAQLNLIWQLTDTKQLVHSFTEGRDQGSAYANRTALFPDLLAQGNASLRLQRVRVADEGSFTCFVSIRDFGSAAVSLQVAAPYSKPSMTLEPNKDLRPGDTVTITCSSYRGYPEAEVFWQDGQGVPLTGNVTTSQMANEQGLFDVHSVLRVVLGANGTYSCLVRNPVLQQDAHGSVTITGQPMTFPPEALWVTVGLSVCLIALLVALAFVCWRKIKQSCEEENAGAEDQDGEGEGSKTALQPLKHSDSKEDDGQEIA
# EXPERIMENT_DESCRIPTION: cell-based or functional assay
Answer format: numeric, RLU implied, no suffix.

{"columns": ["BINDER", "ENDPOINT_VALUE"],
 "data": [
  ["40633p1.1.H11 IgG (antibody, V domains shown) VH: EVQLLESGGGLVQPGGSLRLSCAASGFTFSSYPMTWVRQAPGKGLEWVADINSGGGTTLYADAVKGRFTISRDNSKNIVYLQMNSLRGEDTAVYYCAKHLDYYSYGMDVWGQGTTVTVSS VL: QSVLTQPPSASGTPGQRVTISCSGVTSKIGSKYVHWYQQLPGTAPKLLIYRNFERPSGVPDRFSGSTSGTSASLAISGLQSEDEADYYCATWEGALNGWVFGGGTKLTVL", 798000]
]}

[ask] Reported ADCC reporter assay, Max RLU, CHOK1/B7-H3 cells, binder 40511p1.1.G3 IgG (antibody, V domains shown) VH: DVQLVESGGGVVRPGESLTLSCAASGFTINSYAVSWVRQAPGEGLEWVSGISGSGVRYYADSVKGRFTISRDDSNNTLYLQMNSLRAEDTAVYYCARSNKVTWNNFFDYWGLGTLVTVSS VL: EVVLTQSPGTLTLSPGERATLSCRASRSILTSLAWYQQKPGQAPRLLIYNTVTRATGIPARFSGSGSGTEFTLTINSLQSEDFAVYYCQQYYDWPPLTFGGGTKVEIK : ____
[reply] 723000

[ask] Reported ADCC reporter assay, Max RLU, CHOK1/B7-H3 cells, binder 40633p1.2.D1 IgG (antibody, V domains shown) VH: EVQLLESGGGLVQPGGSLRLSCAASGFTFDVYGMSWVRQAPGKGLEWVSAINWNGGSTYYADSVKGRFTISRDNSENTLYLQMNSLRAEDTAVYYCAKEKWKHFIYYGMDVWGQGTTVTVSS VL: QSVLTQPASASGTPGQTVSISCSGSSSNIDSNTANWYQQLPGTAPKLLIYSNNQRPSGVPDRFSGSKSDTSASLAISGLQSEDEGDYYCSAWDDNLNGWLFGGGTKLTVL : ____
[reply] 676000

[ask] Reported ADCC reporter assay, Max RLU, CHOK1/B7-H3 cells, binder 40579p1.D8 IgG (antibody, V domains shown) VH: EVQLLESGGGLVQPGGSLRLSCAASGFTFSDYYMSWVRQAPGKGLEWVSSISISYGGTTYYADSVKGRFTISRDNSKNTLYLQMNSLRAEDTAVYYCARDRSPYQCRSMDVWGQGTTVTVSS VL: EIVLTQSPGTLSLSPGERATLSCRASQSIRSDLAWYQQKPGQAPRLLIYNTVTRATGVPDRFSGSGSGTEFTLTISSLQSEDFAVYYCQQYNSWPPLTFGGGTKVEIK : ____
[reply] 728000

[ask] Reported ADCC reporter assay, Max RLU, CHOK1/B7-H3 cells, binder 40511p1.1.H5 IgG (antibody, V domains shown) VH: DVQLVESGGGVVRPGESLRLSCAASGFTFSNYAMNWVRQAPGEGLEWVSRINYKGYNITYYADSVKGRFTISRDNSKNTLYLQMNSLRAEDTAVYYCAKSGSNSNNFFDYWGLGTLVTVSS VL: EIVLTQSPGTLSLSPGERATLSCRASQSIRSDLAWYQQKPGQAPRLLIYGAASRATGIPARFSGSGSGTEFTLTISSLQSGDFAVYYCQQYNSWPPLTFGGGTKVEIK : ____
[reply] 762000
